The following compounds are listed with their measured fold change values.
- TESTED_TARGET: variant surface glycoprotein 221 (VSM2.TRYBB) (Trypanosoma brucei brucei, UniProt P26332)
- Assay type: binding, T. brucei
- PARTICULARS: protein VSM2_TRYBB VARIANT SURFACE GL[…] 1.2; vehicle control = 1
Please state the value as a number alone, without comment.

>  <COMPOUND>
NCCOCCOCC(=O)Nc1nc2ncc(CNc3ccc(C(=O)NC(CCC(=O)O)C(=O)O)cc3)nc2c(=O)[nH]1 (stereo not shown) [compound 6]

>  <TESTED_TARGET>
variant surface glycoprotein 221 (VSM2.TRYBB) (Trypanosoma brucei brucei, UniProt P26332)

>  <RECORDED_ENDPOINT>
fold change

>  <READING>
2.16

$$$$
>  <COMPOUND>
Nc1nc2c(c(=O)[nH]1)N(C=O)C(CNc1ccc(C(=O)N[C@@H](CCC(=O)O)C(=O)O)cc1)CN2 (stereo partly shown) [LEU, leucovorin]

>  <TESTED_TARGET>
variant surface glycoprotein 221 (VSM2.TRYBB) (Trypanosoma brucei brucei, UniProt P26332)

>  <RECORDED_ENDPOINT>
fold change

>  <READING>
3.08

$$$$
>  <COMPOUND>
NCCCNc1ccc(C(=O)NC(CCC(=O)O)C(=O)O)cc1 (stereo not shown) [compound 7]

>  <TESTED_TARGET>
variant surface glycoprotein 221 (VSM2.TRYBB) (Trypanosoma brucei brucei, UniProt P26332)

>  <RECORDED_ENDPOINT>
fold change

>  <READING>
0.81

$$$$

Proceed to the following item.
So what's the measured fold change for this one? Nc1nc2[nH]cc(CCc3ccc(C(=O)N[C@@H](CCC(=O)O)C(=O)O)cc3)c2c(=O)[nH]1 [PTX, pemetrexed]
0.39
